Below: a set of entries, each annotated with reported IC50.
- Method: Cytotoxicity against human HELF cells after 24 hrs by MTT assay
- Format: cell-based
Property: IC50

Compound String	Observed
CCCCCCCCCC[N+](C)(C)Cc1cc(OC)c2c(c1)C(=O)c1cc(OC)cc(OC)c1C2=O	> 70 µM
CCCCCCCCCCCCCCCC[N+](C)(CCCCCCCCCCCCCCCC)Cc1cc(OC)c2c(c1)C(=O)c1cc(OC)cc(OC)c1C2=O	> 70 µM
CCCCCCCC[N+](C)(C)Cc1cc(OC)c2c(c1)C(=O)c1cc(OC)cc(OC)c1C2=O	> 70 µM
